Sourced from ChEMBL document CHEMBL4152374

Target: DNA topoisomerase 2-alpha (Homo sapiens)
Test: Inhibition of human topoisomerase 2-alpha using supercoiled pBR322 plasmid DNA as substrate at 100 uM after 30 mins by agarose gel electrophoresis method relative to etoposide
Each entry below carries its recorded fold change (FC).

O=C1c2ccccc2-c2nc(-c3ccccc3O)cc(-c3cccc(O)c3)c21 1.15 to 1.23
O=C1c2ccccc2-c2nc(-c3cccc(O)c3)cc(-c3ccccc3)c21 0.32
O=C1c2ccccc2-c2nc(-c3ccccc3)cc(-c3ccc(O)cc3)c21 0.9
O=C1c2ccccc2-c2nc(-c3ccccc3)cc(-c3cccc(O)c3)c21 0.12

Ask: Checklist item: fold change (FC) tested on DNA topoisomerase 2-alpha (Homo sapiens), entry `O=C1c2ccccc2-c2nc(-c3cccc(O)c3)cc(-c3ccc(O)cc3)c21` , value?
Result: 1.33 to 1.42

###

Molecular target: DNA topoisomerase 2-alpha (Homo sapiens)
Assay: Inhibition of human topoisomerase 2-alpha using supercoiled pBR322 plasmid DNA as substrate at 20 uM after 30 mins by agarose gel electrophoresis method relative to etoposide
Each entry below carries its recorded fold change (FC).
Format: numeric value only, no unit, no commentary.

Would you please look over these solved cases?
O=C1c2ccccc2-c2nc(-c3ccccc3)cc(-c3ccc(O)cc3)c21 0.35
O=C1c2ccccc2-c2nc(-c3ccccc3O)cc(-c3cccc(O)c3)c21 0.26
O=C1c2ccccc2-c2nc(-c3ccc(O)cc3)cc(-c3ccc(O)cc3)c21 0.61
O=C1c2ccccc2-c2nc(-c3ccccc3O)cc(-c3ccccc3O)c21 0.2

Ask: Checklist item: fold change (FC) tested on DNA topoisomerase 2-alpha (Homo sapiens), entry `O=C1c2ccccc2-c2nc(-c3ccc(O)cc3)cc(-c3cccc(O)c3)c21` , value?
Result: 1.38

###

Each entry below carries its recorded inhibition.
Target: DNA topoisomerase 1 (Homo sapiens) (UniProt P11387)
Sequence (P11387 whole entry): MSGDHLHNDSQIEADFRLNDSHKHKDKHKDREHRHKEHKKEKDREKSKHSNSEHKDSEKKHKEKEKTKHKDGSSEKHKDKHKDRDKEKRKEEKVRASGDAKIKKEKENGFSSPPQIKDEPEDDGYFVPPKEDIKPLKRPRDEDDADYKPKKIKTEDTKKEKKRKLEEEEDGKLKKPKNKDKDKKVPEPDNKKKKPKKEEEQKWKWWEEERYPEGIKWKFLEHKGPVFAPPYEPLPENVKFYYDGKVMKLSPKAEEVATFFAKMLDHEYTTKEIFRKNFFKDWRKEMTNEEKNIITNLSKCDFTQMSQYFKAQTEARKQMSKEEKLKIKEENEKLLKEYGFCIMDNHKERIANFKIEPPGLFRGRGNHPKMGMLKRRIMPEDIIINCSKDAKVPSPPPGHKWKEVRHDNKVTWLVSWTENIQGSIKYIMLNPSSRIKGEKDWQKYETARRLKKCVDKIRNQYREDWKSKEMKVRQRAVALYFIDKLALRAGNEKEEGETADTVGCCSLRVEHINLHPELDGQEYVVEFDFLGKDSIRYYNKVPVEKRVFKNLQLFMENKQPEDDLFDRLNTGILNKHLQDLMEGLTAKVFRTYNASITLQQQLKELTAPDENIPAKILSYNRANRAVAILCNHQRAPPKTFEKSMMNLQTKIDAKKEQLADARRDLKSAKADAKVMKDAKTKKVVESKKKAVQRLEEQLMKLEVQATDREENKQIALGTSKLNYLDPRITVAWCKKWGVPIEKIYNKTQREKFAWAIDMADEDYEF
Assay: Inhibition of human topoisomerase 1 using supercoiled pBR322 plasmid DNA as substrate at 100 uM after 30 mins by agarose gel electrophoresis method relative to control
Answer with a number only, understood to be in %.

Would you please look over these solved cases?
compound	value
O=C1c2ccccc2-c2nc(-c3cccc(O)c3)cc(-c3cccc(O)c3)c21	25.7
Oc1cccc(-c2cc(-c3ccccc3)c3c(n2)-c2ccccc2C3O)c1 (configuration not stated)	0
O=C1c2ccccc2-c2nc(-c3ccc(O)cc3)cc(-c3ccccc3O)c21	60
O=C1c2ccccc2-c2nc(-c3ccccc3)cc(-c3cccc(O)c3)c21	7.4
O=C1c2ccccc2-c2nc(-c3ccccc3)cc(-c3ccccc3O)c21	0

Ask: Which inhibition is listed for `O=C1c2ccccc2-c2nc(-c3ccc(O)cc3)cc(-c3cccc(O)c3)c21` ?
Result: 75.5

Ask: Which inhibition is listed for `O=C1c2ccccc2-c2nc(-c3cccc(O)c3)cc(-c3ccc(O)cc3)c21` ?
Result: 42.6

Ask: Which inhibition is listed for `O=C1c2ccccc2-c2nc(-c3ccccc3O)cc(-c3cccc(O)c3)c21` ?
Result: 0

###

Test system: HCT-15
Assay: Antiproliferative activity against human HCT15 cells after 72 hrs by EZ-CYTOX reagent based assay
Assay type: functional, cell-based
Conditions: HCT-15, 72 h
quantity name: pIC50
// pIC50 is dimensionless: -log10 of concentration (M)

Would you please look over these solved cases?
compound	pIC50
O=C1c2ccccc2-c2nc(-c3ccccc3)cc(-c3cccc(O)c3)c21	5.61
Oc1ccc(-c2cc(-c3ccccc3O)c3c(n2)-c2ccccc2C3O)cc1 (stereo not given)	4.89
Oc1cccc(-c2cc(-c3cccc(O)c3)c3c(n2)-c2ccccc2C3O)c1 (stereo not given)	5.21

Ask: Which pIC50 is listed for `O=C1c2ccccc2-c2nc(-c3ccccc3)cc(-c3ccccc3O)c21` ?
Result: 5.63

Ask: Which pIC50 is listed for `O=C1c2ccccc2-c2nc(-c3ccc(O)cc3)cc(-c3ccc(O)cc3)c21` ?
Result: 5.73

Ask: Which pIC50 is listed for `O=C1c2ccccc2-c2nc(-c3cccc(O)c3)cc(-c3ccc(O)cc3)c21` ?
Result: 5.02

Ask: Which pIC50 is listed for COc1cc([C@@H]2c3cc4c(cc3[C@@H](O[C@@H]3O[C@@H]5CO[C@@H](C)O[C@H]5[C@H](O)[C@H]3O)[C@H]3COC(=O)[C@H]23)OCO4)cc(OC)c1O [ETOPOSIDE] ?
Result: 5.53
